Test system: subtilisin
Experiment: Subtilisin treatment (resistance against proteolytic degradation)
Assay type: in vitro ADME
Design: key: S: stable; PU: partially unstable
Settings: 500 ng/μL subtilisin, 30 min, room temperature
TEST READOUT: Stability (Subtilisin assay)

INSERT INTO results (molecule, result) VALUES
  ('WT-CfAvr4: wild-type Avr4 effector protein of Cladosporium fulvum, CBM14 chitin-binding lectin, E. coli-produced mature form Lys30-Gln115 (protein, left off: 6x His (two), N-terminal, cleaved) KAPKTQPYNPCKPQEVIDTKCMGPKDCLYPNPDSCTTYIQCVPLDEVGNAKPVVKPCPKGLQWNDNVGKKWCDYPNLSTCPVKTPQ', 'S'),
  ('N93A (protein, left off: 6x His (two), N-terminal, state not stated) KAPKTQPYNPCKPQEVIDTKCMGPKDCLYPNPDSCTTYIQCVPLDEVGNAKPVVKPCPKGLQWADNVGKKWCDYPNLSTCPVKTPQ', 'PU');
